The reported numbers originate from paper PMC6274061.

Target: Citrullus vulgaris urease (CVU)
Assay: Binding equilibrium by intrinsic fluorescence quenching
Details: 1 h after addition, 37 °C, read-out: DSF dissociation constant (Kd)
experimentalEndpoint: pKd
Numbers only, as −log10 of the molar value.

Q: May I ask what pKd has been recorded for CCN(CC)C(=S)SSC(=S)N(CC)CC [DSF, tetraethylthiuram disulphide] ?
Ans: 4.26

----------
Biological target: Citrullus vulgaris urease (CVU)
Assay: Inhibition pattern: urea saturation kinetics of CVU at fixed/variable DSF concentrations
Settings: global fit to non-competitive inhibition, Equation (5); read-out: Inhibition constant (Ki)
experimentalEndpoint: pKi
Give bare numbers, as −log10 of the molar value.

Q: What pKi value was documented for this compound, CCN(CC)C(=S)SSC(=S)N(CC)CC [DSF, tetraethylthiuram disulphide] ?
Ans: 4.17
